Attribution: patent US20250195521A1

target: KRAS G12S (Homo sapiens (Human), UniProt P01116+P62937, G12S)
Sequence (P01116 other isoform, or with tags, fused parts or gaps G12S): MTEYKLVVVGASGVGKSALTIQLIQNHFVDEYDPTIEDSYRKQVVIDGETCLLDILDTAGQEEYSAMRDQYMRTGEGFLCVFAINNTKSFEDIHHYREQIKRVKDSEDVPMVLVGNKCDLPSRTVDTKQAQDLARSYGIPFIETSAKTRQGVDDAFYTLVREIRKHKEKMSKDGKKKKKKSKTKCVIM
Sequence (P62937 whole entry): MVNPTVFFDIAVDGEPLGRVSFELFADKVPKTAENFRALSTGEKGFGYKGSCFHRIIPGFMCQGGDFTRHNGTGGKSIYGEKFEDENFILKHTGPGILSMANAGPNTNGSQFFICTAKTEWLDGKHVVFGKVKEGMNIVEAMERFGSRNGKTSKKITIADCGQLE
method summary: Ras-Raf disruption/FRET/MOA assay (BRAF RBD, Cyclophilin A)
Format: biochemical
assay context: read-out: KRAS G12S FRET IC50
pIC50: −log10 of the molar value.
Reported pIC50 values for the following compounds.

A selection of reference data follows.
compound	pIC50
CCn1c(-c2cccnc2[C@H](C)OC)c2c3cc(ccc31)-c1cc(CF)cc(c1)C[C@H](NC(=O)[C@H](C(C)C)N(C)C(=O)[C@@H]1OCC[C@@H]1c1ccccc1)C(=O)N1CCC[C@H](N1)C(=O)OCC(C)(C)C2 [Compound A509]	6.00 to 7.00
CCn1c(-c2cnccc2COC)c2c3cc(ccc31)-c1cc(O)cc(c1)C[C@H](NC(=O)[C@H](C(C)C)N(C)C(=O)[C@H]1CCCN1C)C(=O)N1CCC[C@H](N1)C(=O)OCC(C)(C)C2 [Compound A83]	6.00 to 7.00
CCn1c(-c2cccnc2[C@H](C)OC)c2c3cc(ccc31)-c1cccc(c1)C[C@H](NC(=O)[C@H](C(C)C)N(C)C(=O)[C@H]1OCC[C@H]1c1ccccc1)C(=O)N1CCC[C@H](N1)C(=O)OCC(C)(C)C2 [Compound A429]	< 5.00

Kindly review the next compound as well.
Query: Could you share which pIC50 value was measured for CCn1c(-c2cccnc2[C@H](C)OC)c2c3cc(ccc31)-c1csc(n1)C[C@H](NC(=O)[C@H](C(C)C)N(C)C(=O)N(C)C[C@H]1CCCN1C)C(=O)N1CCC[C@H](N1)C(=O)OCC(C)(C)C2 [Compound A473] ?
Result: 6.00 to 7.00
